target or system: PI3Kγ (Homo sapiens)
Sequence (P48736 whole entry, species assumed): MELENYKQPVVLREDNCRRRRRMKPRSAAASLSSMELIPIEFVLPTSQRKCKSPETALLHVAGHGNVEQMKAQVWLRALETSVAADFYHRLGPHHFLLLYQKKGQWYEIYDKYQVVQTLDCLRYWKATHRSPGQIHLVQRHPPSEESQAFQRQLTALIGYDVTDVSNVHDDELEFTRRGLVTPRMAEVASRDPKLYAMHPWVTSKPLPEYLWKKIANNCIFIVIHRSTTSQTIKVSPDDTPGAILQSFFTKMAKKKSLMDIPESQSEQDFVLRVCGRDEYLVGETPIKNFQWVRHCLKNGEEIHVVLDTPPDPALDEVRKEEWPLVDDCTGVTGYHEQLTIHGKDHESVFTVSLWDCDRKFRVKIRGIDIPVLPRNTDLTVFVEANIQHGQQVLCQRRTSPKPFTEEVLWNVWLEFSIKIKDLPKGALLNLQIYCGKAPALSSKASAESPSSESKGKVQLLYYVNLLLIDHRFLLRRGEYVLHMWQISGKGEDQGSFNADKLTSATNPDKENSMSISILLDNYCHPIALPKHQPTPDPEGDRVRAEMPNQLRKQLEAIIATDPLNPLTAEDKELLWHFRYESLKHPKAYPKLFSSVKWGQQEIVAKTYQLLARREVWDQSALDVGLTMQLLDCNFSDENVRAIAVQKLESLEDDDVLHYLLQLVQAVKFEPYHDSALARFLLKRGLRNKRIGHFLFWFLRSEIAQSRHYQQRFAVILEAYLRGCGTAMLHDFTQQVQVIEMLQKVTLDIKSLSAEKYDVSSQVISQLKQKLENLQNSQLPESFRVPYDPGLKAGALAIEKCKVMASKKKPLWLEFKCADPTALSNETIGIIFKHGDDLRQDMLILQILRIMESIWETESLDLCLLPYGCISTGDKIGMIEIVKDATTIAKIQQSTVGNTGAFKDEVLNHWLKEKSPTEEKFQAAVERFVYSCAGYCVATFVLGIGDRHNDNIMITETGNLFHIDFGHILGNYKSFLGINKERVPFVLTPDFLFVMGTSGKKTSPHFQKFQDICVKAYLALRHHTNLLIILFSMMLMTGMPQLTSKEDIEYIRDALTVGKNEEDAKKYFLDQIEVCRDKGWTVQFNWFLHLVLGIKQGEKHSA
pIC50: −log10 of the molar value.
Output Met for pIC50 not less than 7; output Not met otherwise.

Kindly determine if pIC50 recorded for CCn1ccc2c(N3CCOCC3)nc(-c3ccc(NC(=O)Nc4ccc(C(=O)N5CCC(N6CCCC6)CC5)cc4)cc3)nc21 [Compound 69] is above or exactly 7.
Met

Threshold query (pIC50 >= 7) on O=C(Nc1ccncc1)Nc1ccc(-c2nc(N3CCOCC3)c3ccn(CCN4CCCCC4)c3n2)cc1 [Compound 24]
Not met

Confirm if pIC50 reported for the molecule CCn1ccc2c(N3CCOCC3)nc(-c3ccc(NC(=O)Nc4ccc(C(=O)N5CCOCC5)cc4)cc3)nc21 [Compound 66] is 7 or above.
Met

Has CN1CCN(CCn2ccc3c(N4CCOCC4)nc(-c4ccc(NC(=O)Nc5ccncc5)cc4)nc32)CC1 [Compound 28] a recorded pIC50 greater than or equal to 7?
Not met

API: above_or_equal(metric=pIC50, cutoff=7) for item O=C(Nc1ccc(-c2nc(N3CCOCC3)c3ccn(CC(F)(F)F)c3n2)cc1)OCCO [Compound 43]
Not met

Further cases:
Reported pIC50 reaches at least 7 for CCn1cc(CN(C)C)c2c(N3CCOCC3)nc(-c3ccc(NC(=O)NC)cc3)nc21 [Compound 97] ?
Not met

Confirm if pIC50 reported for the molecule CN(C)CCN(C)C(=O)c1ccc(NC(=O)Nc2ccc(-c3nc(N4CCOCC4)c4ccn(CC(F)(F)F)c4n3)cc2)cc1 [Compound 51] is 7 or above.
Met

Given the entry NC(=O)Nc1cccc(Cn2ccc3c(N4CCOCC4)nc(-c4cccc(CO)c4)nc32)c1 [Compound 19] , answer whether its pIC50 meets or surpasses 7.
Not met

Hi team, for CC(C)n1ccc2c(N3CCOCC3)nc(-c3ccc(NC(=O)Nc4ccc(C(=O)N(C)CCN(C)C)cc4)cc3)nc21 [Compound 85] , is the recorded pIC50 at or above 7?
Met

Does pIC50 meet or surpass 7 for CC(C)n1ccc2c(N3CCOCC3)nc(-c3ccc(NC(=O)Nc4ccc(C(=O)N5CCC(N6CCCC6)CC5)cc4)cc3)nc21 [Compound 88] ?
Met

# check: pIC50 of CC1(C)CN(C(=O)c2ccc(NC(=O)Nc3ccc(-c4nc(N5CCOCC5)c5ccn(CC(F)(F)F)c5n4)cc3)cc2)CCN1 [Compound 55] is greater than or equal to 7
Met

Test whether the molecule CCn1ccc2c(N3CCOCC3)nc(-c3ccc(NC(=O)Nc4ccc(C(=O)N5CCC(N(C)C)CC5)cc4)cc3)nc21 [Compound 65] records pIC50 of 7 or higher.
Met

Could you please find out whether CN(C)CCNC(=O)Nc1ccc(-c2nc(N3CCOCC3)c3ccn(CCN(C)C)c3n2)cc1 [Compound 14] has pIC50 that meets 7 or exceeds it?
Not met
